These entries and their values trace back to patent US20140023611A1.

- tgt: human NaP2b (SLC34A2) (Homo sapiens, UniProt O95436)
- Construct: host or cells: HEK293
- Sequence (O95436 whole entry): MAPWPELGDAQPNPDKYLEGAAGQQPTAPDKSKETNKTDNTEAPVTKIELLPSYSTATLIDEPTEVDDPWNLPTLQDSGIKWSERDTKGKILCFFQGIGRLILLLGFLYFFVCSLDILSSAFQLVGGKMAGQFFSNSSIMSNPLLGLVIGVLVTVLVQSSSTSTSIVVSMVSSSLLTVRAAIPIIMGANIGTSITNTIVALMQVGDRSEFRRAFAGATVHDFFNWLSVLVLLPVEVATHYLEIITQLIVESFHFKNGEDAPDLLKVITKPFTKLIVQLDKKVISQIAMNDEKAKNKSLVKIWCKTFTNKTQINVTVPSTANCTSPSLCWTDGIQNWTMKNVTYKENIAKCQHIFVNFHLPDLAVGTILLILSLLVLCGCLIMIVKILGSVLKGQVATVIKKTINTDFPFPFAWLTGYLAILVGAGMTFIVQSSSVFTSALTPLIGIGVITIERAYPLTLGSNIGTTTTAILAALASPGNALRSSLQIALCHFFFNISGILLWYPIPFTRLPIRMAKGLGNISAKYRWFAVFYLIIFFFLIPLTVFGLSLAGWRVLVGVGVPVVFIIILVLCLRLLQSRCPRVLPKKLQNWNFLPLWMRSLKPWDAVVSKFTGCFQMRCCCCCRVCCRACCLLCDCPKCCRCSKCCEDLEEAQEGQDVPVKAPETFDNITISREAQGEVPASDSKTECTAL
- assay-procedure: Inhibition of NaP2b-mediated Pi (33P) uptake in transfected HEK293 cells, human NaP2b
- Type: cell-based
- measurement-context: read-out: pIC50 range for human NaP2b (converted)

# compound-string, tgt, IC50
records = [
    ("O=C(O)c1cccc(COCc2cccc(C(=O)Nc3ccc(N4CCCCC4)cc3-c3cc(C(=O)NCc4cccc(C(F)(F)F)c4)ccn3)c2)c1", "human NaP2b (SLC34A2) (Homo sapiens, UniProt O95436)", "< 1000 nM"),
    ("CCN(CC)c1ccc(NC(=O)c2cccc(C(=O)N(C)CCN3CCN(C(=O)OCCOCCOCCOCCOCCOCCOCCOC)CC3)c2)c(-c2cc(C(=O)N[C@H]3CCCc4ccccc43)ccn2)c1", "human NaP2b (SLC34A2) (Homo sapiens, UniProt O95436)", "1000 to 7940 nM"),
    ("CCN(CC)c1ccc(NC(=O)c2cccc(C(=O)N(C)CCN3CCCC[C@H]3C(=O)NCCOCCOCCOCCOCCOCCOCCOCCOC)c2)c(-c2cc(C(=O)NCc3cccc(C(F)(F)F)c3)ccn2)c1", "human NaP2b (SLC34A2) (Homo sapiens, UniProt O95436)", "1000 to 7940 nM"),
    ("CCN(CC)c1ccc(NC(=O)c2cccc(C(=O)N(C)CCN3CCN(C(=O)N(C)CCOCCOCCOCCC(=O)OC(C)(C)C)CC3)c2)c(-c2cc(C(=O)N[C@H]3CCCc4ccccc43)ccn2)c1", "human NaP2b (SLC34A2) (Homo sapiens, UniProt O95436)", "< 1000 nM"),
    ("CN(CCN1CCC[C@H]1C(=O)NCCOCCOCCOCCC(=O)OC(C)(C)C)C(=O)c1cccc(C(=O)Nc2ccc(N3CCCCC3)cc2-c2cc(C(=O)N[C@H]3CCCc4ccccc43)ccn2)c1", "human NaP2b (SLC34A2) (Homo sapiens, UniProt O95436)", "< 1000 nM"),
    ("CCN(CC)c1ccc(NC(=O)c2cccc(C(=O)N(C)CCOCCOCCOCCC(=O)O)c2)c(-c2cc(C(=O)NCc3cccc(C(F)(F)F)c3)ccn2)c1", "human NaP2b (SLC34A2) (Homo sapiens, UniProt O95436)", "1000 to 7940 nM"),
    ("COCCOCCOCCOCCOCCOCCOCCOC(=O)N1CCCN(CCN(C)C(=O)c2cccc(C(=O)Nc3ccc(N4CCCCC4)cc3-c3cc(C(=O)N[C@H]4CCCc5ccccc54)ccn3)c2)CC1", "human NaP2b (SLC34A2) (Homo sapiens, UniProt O95436)", "1000 to 7940 nM"),
    ("COc1ccc(CNc2cc(-c3cc(N4CCCCC4)ccc3NC(=O)c3cccc(CSCCC(=O)O)c3)ncn2)cc1OC", "human NaP2b (SLC34A2) (Homo sapiens, UniProt O95436)", "10000 to 31600 nM"),
    ("CN(CCN1CCOC[C@H]1C(=O)N(C)CCOCCOCCOCCC(=O)OC(C)(C)C)C(=O)c1cccc(C(=O)Nc2ccc(N3CCCCC3)cc2-c2cc(C(=O)N[C@H]3CCCc4ccccc43)ccn2)c1", "human NaP2b (SLC34A2) (Homo sapiens, UniProt O95436)", "< 1000 nM"),
    ("CCN(CC)c1ccc(NC(=O)c2cccc(CSCCOCCOCCOCCOCCC(=O)NC(CO)(CO)CO)c2)c(-c2cc(C(=O)NCc3cccc(C(F)(F)F)c3)ccn2)c1", "human NaP2b (SLC34A2) (Homo sapiens, UniProt O95436)", "1000 to 7940 nM"),
    ("COCCOCCOCCOCCOCCOCCOCCOCCNC(=O)CCOCCOCCOCCOCCCc1cccc(C(=O)Nc2ccc(N3CCCCC3)cc2-c2cc(C(=O)NCc3cccc(C(F)(F)F)c3)ccn2)c1", "human NaP2b (SLC34A2) (Homo sapiens, UniProt O95436)", "1000 to 7940 nM"),
]

* * *

Below: a set of entries, each annotated with reported Cmax.
- assay-procedure: Determination of compound Cmax and AUC after oral gavage (plasma LC-MS/MS)
- Type: in vivo, Sprague-Dawley rats
- measurement-context: Sprague-Dawley, rat, plasma, po, Structure (II) examples, Table 6, actual oral dose 7.6-11 mg/kg

# compound-string, Cmax / ng/mL
records = [
    ("CN(CCOCCOCCOCCC(=O)O)C(=O)c1cccc(C(=O)Nc2ccc(N3CCCCC3)cc2C(=O)Nc2ccn(-c3cccc(C(F)(F)F)c3)n2)c1", 10),
    ("O=C(O)CCOCCOCCOCCNC(=O)Cc1cccc(SCc2cccc(C(=O)Nc3ccc(N4CCCCC4)cc3C(=O)Nc3ccn(-c4cccc(C(F)(F)F)c4)n3)c2)c1", 3),
    ("O=C(O)CCSCc1cccc(C(=O)Nc2ccc(N3CCCCC3)cc2C(=O)Nc2ccn(-c3cccc(C(F)(F)F)c3)n2)c1", 393),
    ("CN(CCN1CCOCC1)C(=O)c1cccc(C(=O)Nc2ccc(N3CCCCC3)cc2C(=O)Nc2ccn(-c3cccc(C(F)(F)F)c3)n2)c1", 5),
    ("O=C(O)CCOCCOCCOCCNC(=O)c1cccc(C(=O)Nc2ccc(Cl)cc2C(=O)Nc2ccn(-c3cccc(C(F)(F)F)c3)n2)c1", 3),
]

* * *

- assay-procedure: Fecal recovery of orally administered compounds
- Type: in vivo, Sprague-Dawley rats
- measurement-context: Structure (I) examples, Table 16; rat, oral gavage, feces collected until 48 hr after dosing
Where a name gives a salt, the structure may show the parent alone.
The entries below are paired with their reported % recovered in feces.

# compound, % recovered in feces
measured = [
    ("CCN(CC)c1ccc(NC(=O)c2cccc(CCCOCCOCCOCCOCCOCCOCCC(=O)O)c2)c(-c2cc(C(=O)NCc3cccc(C(F)(F)F)c3)ccn2)c1", "20-80%"),
    ("CC(C)(SCc1cccc(C(=O)Nc2ccc(N3CCCCC3)cc2-c2cc(C(=O)NCc3cccc(C(F)(F)F)c3)ccn2)c1)C(=O)O", "20-80%"),
    ("CCN(CC)c1ccc(NC(=O)c2cccc(CSCCOCCOCCOCCOCCOCCOCCOCCOCCC(=O)O)c2)c(-c2cc(C(=O)N[C@H]3CCCc4ccccc43)ccn2)c1", ">80%"),
    ("CCN(CC)c1ccc(NC(=O)c2cccc(C(=O)N(C)CCN(CCOC)CCOCCOCCOCCOCCOCCOCCOC)c2)c(-c2cc(C(=O)NCc3cccc(C(F)(F)F)c3)ccn2)c1 [Example 335, trifluoroacetate]", ">80%"),
    ("O=C(O)CCOCCOCCOCCNC(=O)c1cccc2c1ccn2Cc1cccc(C(=O)Nc2ccc(N3CCCCC3)cc2-c2cc(C(=O)N[C@H]3CCCc4ccccc43)ccn2)c1", ">80%"),
]

* * *

- tgt: rat NaP2b (SLC34A2) (Rattus norvegicus, UniProt Q9JJ09)
- Construct: host or cells: HEK293
- Sequence (Q9JJ09 whole entry): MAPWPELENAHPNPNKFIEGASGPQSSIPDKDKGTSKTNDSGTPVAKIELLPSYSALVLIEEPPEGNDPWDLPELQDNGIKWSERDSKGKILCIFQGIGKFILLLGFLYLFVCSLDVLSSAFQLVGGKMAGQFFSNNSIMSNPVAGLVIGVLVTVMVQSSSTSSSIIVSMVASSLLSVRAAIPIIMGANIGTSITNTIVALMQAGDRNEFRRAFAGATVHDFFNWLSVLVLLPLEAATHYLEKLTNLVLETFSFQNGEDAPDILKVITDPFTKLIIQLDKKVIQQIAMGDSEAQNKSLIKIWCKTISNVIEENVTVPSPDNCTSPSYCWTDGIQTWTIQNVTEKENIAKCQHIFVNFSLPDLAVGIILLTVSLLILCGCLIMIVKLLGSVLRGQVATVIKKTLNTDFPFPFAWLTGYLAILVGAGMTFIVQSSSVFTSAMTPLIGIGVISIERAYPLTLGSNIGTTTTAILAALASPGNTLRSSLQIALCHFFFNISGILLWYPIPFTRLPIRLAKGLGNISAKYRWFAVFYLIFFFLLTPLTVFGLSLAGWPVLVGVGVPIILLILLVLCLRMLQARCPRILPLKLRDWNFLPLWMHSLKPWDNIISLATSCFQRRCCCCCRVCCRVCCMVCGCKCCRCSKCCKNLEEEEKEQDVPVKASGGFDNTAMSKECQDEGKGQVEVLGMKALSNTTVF
- assay-procedure: Inhibition of NaP2b-mediated Pi (33P) uptake in transfected HEK293 cells, rat NaP2b
- Type: cell-based
- measurement-context: 33P Pi uptake, 0.1 mM phosphate, value given as pIC50 range
- Protocol: HEK293 cells were obtained from the American Type Culture collection and propagated per their instructions. […] The sequence of the human protein was mutated to insert a threonine after residue 37, and to introduce a N39D mutation. […] Cells were lysed by addition of 20 μL 0.1% Tween 80 followed by 100 μL scintillation fluid, and counted using a TopCount (Perkin Elmer). pIC50 (the negative log of the IC50) values of the test compounds were calculated using GraphPad Prism.
measured-quantity: IC50

# compound-string, measured-quantity, observed
measured = [
    ("O=C(O)CCSCc1cccc(C(=O)Nc2ccc(N3CCCCC3)cc2-c2cc(C(=O)c3cccc(C(F)(F)F)c3)ccn2)c1", "IC50", "10 to 31.6 µM"),
    ("CCN(CC)c1ccc(NC(=O)c2cccc(C(=O)N(C)CCN(C)CCOCCOCCOCCNC(=O)NCCN3CCOCC3)c2)c(-c2cc(C(=O)N[C@H]3CCCc4ccccc43)ccn2)c1", "IC50", "10 to 31.6 µM"),
    ("CC(=O)N[C@H]1CCN(C(=O)c2cccc(C(=O)Nc3ccc(N4CCCCC4)cc3-c3cc(C(=O)NCc4cccc(C(F)(F)F)c4)ccn3)c2)C1", "IC50", "10 to 31.6 µM"),
    ("CCCN(CCC)c1ccc(NC(=O)c2cccc(C(=O)N(C)CCOCCOCCOCCC(=O)O)c2)c(-c2cc(C(=O)NCc3cccc(C(F)(F)F)c3)ccn2)c1", "IC50", "1 to 7.94 µM"),
    ("CCN(CC)c1ccc(NC(=O)c2cccc(C(=O)N(C)CCN3CCN(CCOCCOCCOCCOCCOCCOCCOC)C(=O)C3)c2)c(-c2cc(C(=O)N[C@H]3CCCc4ccccc43)ccn2)c1", "IC50", "1 to 7.94 µM"),
    ("CCN(CC)c1ccc(NC(=O)c2cccc(COCCOCCOCCOCCOCCOCCOCCOCCOC)c2)c(-c2cc(C(=O)NCc3cccc(C(F)(F)F)c3)ccn2)c1", "IC50", "< 1 µM"),
]
